Just for reference, paper PMC7703486 is where these values come from.

biological target: CDK1/cyclin B (Homo sapiens, UniProt P06493); test: Biochemical assay CDK1/cyclin B; conditions: read-out: CDK1/cyclin B IC50; Table 3; duplicate
Sequence (P06493 whole entry): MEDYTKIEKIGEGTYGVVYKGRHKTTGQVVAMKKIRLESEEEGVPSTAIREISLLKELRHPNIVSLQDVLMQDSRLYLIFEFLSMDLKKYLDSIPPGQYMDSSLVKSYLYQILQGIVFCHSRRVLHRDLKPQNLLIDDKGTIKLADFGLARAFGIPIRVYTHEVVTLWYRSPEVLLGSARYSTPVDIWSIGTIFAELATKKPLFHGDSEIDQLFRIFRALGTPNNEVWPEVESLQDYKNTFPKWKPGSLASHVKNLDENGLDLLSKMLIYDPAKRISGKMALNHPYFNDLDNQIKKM
Sequence (P14635 whole entry partner): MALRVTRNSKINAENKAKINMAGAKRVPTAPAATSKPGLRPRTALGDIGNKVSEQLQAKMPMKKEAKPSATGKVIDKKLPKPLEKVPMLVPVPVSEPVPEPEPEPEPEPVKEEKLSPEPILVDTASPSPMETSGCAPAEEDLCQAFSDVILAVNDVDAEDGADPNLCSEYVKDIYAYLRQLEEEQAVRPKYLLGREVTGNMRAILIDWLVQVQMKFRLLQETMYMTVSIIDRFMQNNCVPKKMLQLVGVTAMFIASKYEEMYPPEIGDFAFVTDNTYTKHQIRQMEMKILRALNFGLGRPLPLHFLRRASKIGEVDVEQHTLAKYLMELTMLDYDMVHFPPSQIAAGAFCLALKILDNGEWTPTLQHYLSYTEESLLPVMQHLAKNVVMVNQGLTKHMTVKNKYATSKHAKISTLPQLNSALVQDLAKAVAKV

COMPOUND: NC(=O)c1c(F)cccc1Nc1nc(Nc2ccc(S(=O)(=O)NCCOCCOCCOCCOCCNc3cccc4c3C(=O)N(C3CCC(=O)NC3=O)C4=O)cc2)ncc1Br (stereo not shown)
TARGET OR TEST SYSTEM: CDK1/cyclin B (Homo sapiens, UniProt P06493)
IC50: 8.7 nM

---

Readings of IC50 for the listed compounds
target: CDK6/cyclin D1 (Homo sapiens, UniProt Q00534); assay: Biochemical assay CDK6/cyclin D1; conditions: read-out: CDK6 IC50; Table 2; w/cyclin D1; duplicate
Sequence (Q00534 whole entry): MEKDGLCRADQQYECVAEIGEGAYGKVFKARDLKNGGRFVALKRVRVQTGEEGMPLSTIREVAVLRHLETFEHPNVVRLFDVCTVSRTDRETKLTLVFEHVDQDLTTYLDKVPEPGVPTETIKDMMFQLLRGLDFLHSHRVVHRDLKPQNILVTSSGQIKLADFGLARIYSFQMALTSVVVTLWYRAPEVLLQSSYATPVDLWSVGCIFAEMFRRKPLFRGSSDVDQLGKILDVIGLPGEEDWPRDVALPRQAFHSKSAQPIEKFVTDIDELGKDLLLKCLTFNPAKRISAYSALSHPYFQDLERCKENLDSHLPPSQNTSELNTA
Sequence (P24385 whole entry partner): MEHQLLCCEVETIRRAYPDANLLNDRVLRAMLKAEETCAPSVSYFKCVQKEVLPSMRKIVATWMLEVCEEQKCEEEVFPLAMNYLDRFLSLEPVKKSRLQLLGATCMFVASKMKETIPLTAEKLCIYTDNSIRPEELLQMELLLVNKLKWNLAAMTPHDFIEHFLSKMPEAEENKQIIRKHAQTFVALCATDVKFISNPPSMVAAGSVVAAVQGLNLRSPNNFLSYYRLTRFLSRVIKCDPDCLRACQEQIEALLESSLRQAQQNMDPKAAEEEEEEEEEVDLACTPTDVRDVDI
MEASURE NAME: IC50 (nM)

COMPOUND: NC(=O)c1c(F)cccc1Nc1nc(Nc2ccc(S(N)(=O)=O)cc2)ncc1Br [TMX-3013]
TEST RESULT: 15.6
//
COMPOUND: Cc1cc(S(N)(=O)=O)ccc1Nc1ncc(Br)c(Nc2cccc(F)c2C(N)=O)n1 [TMX-3010]
TEST RESULT: 84.1

---

biological target: CDK1/cyclin B (Homo sapiens); assay: Biochemical assay CDK1/cyclin B; settings: read-out: CDK1/cyclin B IC50; Table 1, degraders; tested in duplicate
pIC50: −log10 of the molar value.
MEASURE NAME: pIC50

COMPOUND: NC(=O)c1c(F)cccc1Nc1nc(NC2CCN(S(=O)(=O)CCNC(=O)CCCCCOc3cccc4c3C(=O)N(C3CCC(=O)NC3=O)C4=O)CC2)ncc1Br (stereo not drawn)
MEASURE NAME: pIC50
TEST RESULT: 7.51
--
COMPOUND: NC(=O)c1c(F)cccc1Nc1nc(NC2CCN(S(=O)(=O)CCNC(=O)CCCCCCCOc3cccc4c3C(=O)N(C3CCC(=O)NC3=O)C4=O)CC2)ncc1Br (stereo not drawn)
MEASURE NAME: pIC50
TEST RESULT: 8.07
--
COMPOUND: NC(=O)c1c(F)cccc1Nc1nc(NC2CCN(S(=O)(=O)CCNC(=O)CCOCCOCCOCCOCCOc3cccc4c3C(=O)N(C3CCC(=O)NC3=O)C4=O)CC2)ncc1Br (stereo not drawn)
MEASURE NAME: pIC50
TEST RESULT: 8.02
--
COMPOUND: NC(=O)c1c(F)cccc1Nc1nc(NC2CCN(S(=O)(=O)CCNC(=O)CCOCCOCCOCCOCCOCCOCCOCCOCCOc3cccc4c3C(=O)N(C3CCC(=O)NC3=O)C4=O)CC2)ncc1Br (stereo not drawn)
MEASURE NAME: pIC50
TEST RESULT: 7.81
--
COMPOUND: NC(=O)c1c(F)cccc1Nc1nc(NC2CCN(S(=O)(=O)CCNC(=O)CCCCCCCCOc3cccc4c3C(=O)N(C3CCC(=O)NC3=O)C4=O)CC2)ncc1Br (stereo not drawn)
MEASURE NAME: pIC50
TEST RESULT: 8.07
--
COMPOUND: NC(=O)c1c(F)cccc1Nc1nc(NC2CCN(S(=O)(=O)CCNC(=O)CCOCCOCCOc3cccc4c3C(=O)N(C3CCC(=O)NC3=O)C4=O)CC2)ncc1Br (stereo not drawn)
MEASURE NAME: pIC50
TEST RESULT: 7.94

---

molecular target: CDK2/cyclin A (Homo sapiens); test: Biochemical assay CDK2/cyclin A; details: read-out: CDK2/cyclin A IC50; Table 3; duplicate
pIC50: −log10 of the molar value.

MOLECULE: NC(=O)c1c(F)cccc1Nc1nc(Nc2ccc(S(=O)(=O)NCCOCCOCCOCCOCCNc3cccc4c3C(=O)N(C3CCC(=O)NC3=O)C4=O)cc2)ncc1Br (stereo not shown)
pIC50: 7.96

---

molecular target: CDK5/p25 (Homo sapiens); test: Biochemical assay CDK5/p25; settings: read-out: CDK5 IC50; Table 2; w/p25; duplicate
Sequence (Q00535 whole entry): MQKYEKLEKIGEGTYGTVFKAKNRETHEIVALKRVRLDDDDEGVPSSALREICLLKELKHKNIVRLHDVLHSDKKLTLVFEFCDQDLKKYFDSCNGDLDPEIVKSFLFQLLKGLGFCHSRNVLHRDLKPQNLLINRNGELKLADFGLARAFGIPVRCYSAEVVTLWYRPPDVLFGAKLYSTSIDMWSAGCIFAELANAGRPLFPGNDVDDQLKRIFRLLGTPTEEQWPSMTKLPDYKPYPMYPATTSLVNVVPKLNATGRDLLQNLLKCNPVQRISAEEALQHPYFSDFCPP
Sequence (Q15078 99-307 partner limits assumed): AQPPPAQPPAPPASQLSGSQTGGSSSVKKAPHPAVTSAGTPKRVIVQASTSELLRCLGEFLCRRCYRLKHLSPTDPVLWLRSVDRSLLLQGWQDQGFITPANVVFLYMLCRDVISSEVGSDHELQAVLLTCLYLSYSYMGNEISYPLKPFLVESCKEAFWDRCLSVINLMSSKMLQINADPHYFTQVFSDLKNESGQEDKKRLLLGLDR
pIC50: −log10 of the molar value.
Readings of pIC50 for the listed compounds

COMPOUND: Cc1cc(S(N)(=O)=O)ccc1Nc1ncc(Br)c(Nc2cccc(F)c2C(N)=O)n1 [TMX-3010]
pIC50: 9.05
--
COMPOUND: NC(=O)c1c(F)cccc1Nc1nc(Nc2ccc(S(N)(=O)=O)cc2)ncc1Br [TMX-3013]
pIC50: 9.30

---

Readings of pIC50 for the listed compounds
molecular target: CDK4/cyclin D1 (Homo sapiens, UniProt P11802); assay: Biochemical assay CDK4/cyclin D1; conditions: read-out: CDK4 IC50; Table 2; w/cyclin D1; duplicate
Sequence (P11802 whole entry): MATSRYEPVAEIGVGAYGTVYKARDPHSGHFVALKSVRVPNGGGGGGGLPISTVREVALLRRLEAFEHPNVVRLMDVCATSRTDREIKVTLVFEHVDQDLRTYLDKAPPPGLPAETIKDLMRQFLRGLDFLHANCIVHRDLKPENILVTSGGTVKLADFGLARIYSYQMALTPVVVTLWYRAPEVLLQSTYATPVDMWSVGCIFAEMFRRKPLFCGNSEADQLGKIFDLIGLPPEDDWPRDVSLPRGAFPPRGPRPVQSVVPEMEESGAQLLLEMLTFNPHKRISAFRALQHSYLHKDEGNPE
Sequence (P24385 whole entry partner): as the sequence (P24385 whole entry partner) above
pIC50: −log10 of the molar value.
MEASURE NAME: pIC50

COMPOUND: Cc1cc(S(N)(=O)=O)ccc1Nc1ncc(Br)c(Nc2cccc(F)c2C(N)=O)n1
MEASURE NAME: pIC50
TEST RESULT: 6.87

COMPOUND: NC(=O)c1c(F)cccc1Nc1nc(Nc2ccc(S(N)(=O)=O)cc2)ncc1Br
MEASURE NAME: pIC50
TEST RESULT: 7.61

---

target: CDK2/cyclin A (Homo sapiens); assay: Biochemical assay CDK2/cyclin A
pIC50: −log10 of the molar value.
MEASURE NAME: pIC50

COMPOUND: Cc1cc(S(=O)(=O)NCCOCCOCCOCCOCCNc2cccc3c2C(=O)N(C2CCC(=O)NC2=O)C3=O)ccc1Nc1ncc(Br)c(Nc2cccc(F)c2C(N)=O)n1 (stereo not shown)
MEASURE NAME: pIC50
TEST RESULT: 8.19

---

biological target: CDK6/cyclin D1 (Homo sapiens, UniProt Q00534); test: Biochemical assay CDK6/cyclin D1

COMPOUND: Cc1cc(S(=O)(=O)NCCOCCOCCOCCOCCNc2cccc3c2C(=O)N(C2CCC(=O)NC2=O)C3=O)ccc1Nc1ncc(Br)c(Nc2cccc(F)c2C(N)=O)n1 (stereo not shown)
QUANTITY UNIT: nM
IC50: 2220

---

molecular target: CDK2/cyclin A (Homo sapiens, UniProt P24941); test: Biochemical assay CDK2/cyclin A; settings: read-out: CDK2/cyclin A IC50; Table 1, degraders; tested in duplicate
pIC50: −log10 of the molar value.
# label = T if pIC50 >= 8 else F

COMPOUND: NC(=O)c1c(F)cccc1Nc1nc(NC2CCN(S(=O)(=O)CCNC(=O)CCCCCOc3cccc4c3C(=O)N(C3CCC(=O)NC3=O)C4=O)CC2)ncc1Br (stereo not drawn)
GROUP LABEL: F
--
COMPOUND: NC(=O)c1c(F)cccc1Nc1nc(NC2CCN(S(=O)(=O)CCNC(=O)CCOCCOCCOc3cccc4c3C(=O)N(C3CCC(=O)NC3=O)C4=O)CC2)ncc1Br (stereo not drawn)
GROUP LABEL: T
--
COMPOUND: NC(=O)c1c(F)cccc1Nc1nc(NC2CCN(S(=O)(=O)CCNC(=O)CCCCCCCCOc3cccc4c3C(=O)N(C3CCC(=O)NC3=O)C4=O)CC2)ncc1Br (stereo not drawn)
GROUP LABEL: F

---

Readings of IC50 for the listed compounds
biological target: CDK2/cyclin A (Homo sapiens, UniProt P24941); assay: Biochemical assay CDK2/cyclin A; details: read-out: CDK2 IC50; Table 2; w/cyclin A; duplicate
MEASURE NAME: IC50 (nM)

COMPOUND: NC(=O)c1c(F)cccc1Nc1nc(Nc2ccc(S(N)(=O)=O)cc2)ncc1Br
MEASURE NAME: IC50
QUANTITY UNIT: nM
MEASUREMENT QUALIFIER: <
TEST RESULT: 0.5
//
COMPOUND: Cc1cc(S(N)(=O)=O)ccc1Nc1ncc(Br)c(Nc2cccc(F)c2C(N)=O)n1
MEASURE NAME: IC50
QUANTITY UNIT: nM
MEASUREMENT QUALIFIER: =
TEST RESULT: 0.7

---

Readings of IC50 for the listed compounds
biological target: CDK2/cyclin A (Homo sapiens); test: Biochemical assay CDK2/cyclin A; conditions: read-out: CDK2/cyclin A IC50; Table 1, degraders; tested in duplicate

COMPOUND: NC(=O)c1c(F)cccc1Nc1nc(NC2CCN(S(=O)(=O)CCNC(=O)CCOCCOCCOCCOCCOc3cccc4c3C(=O)N(C3CCC(=O)NC3=O)C4=O)CC2)ncc1Br (stereo not drawn)
IC50 / nM: 6.4

COMPOUND: NC(=O)c1c(F)cccc1Nc1nc(NC2CCN(S(=O)(=O)CCNC(=O)CCOCCOCCOCCOCCOCCOCCOCCOCCOc3cccc4c3C(=O)N(C3CCC(=O)NC3=O)C4=O)CC2)ncc1Br (stereo not drawn)
IC50 / nM: 7.3

COMPOUND: NC(=O)c1c(F)cccc1Nc1nc(NC2CCN(S(=O)(=O)CCNC(=O)CCCCCCCOc3cccc4c3C(=O)N(C3CCC(=O)NC3=O)C4=O)CC2)ncc1Br (stereo not drawn)
IC50 / nM: 17.1
